Tested on: NCI-H522 lung
MEASURED_QUANTITY: GI50

Study these solved cases before continuing.
MOLECULE_SMILES	GI50
OCNCCNc1nc2ccccc2c2[nH]c3ccccc3c12	1.55 µM
CN1CCN(c2nc(-c3ccncc3)nc3sc4c(c23)CCCCCC4)CC1	12 µM

Fill in: NCI-H522 lung GI50 for Oc1[nH]c2cc(Cl)ccc2c1/C=c1/ccc2c(c1)N=C(c1cc(F)cc(F)c1)N=2 = 1.19 µM

Fill in: NCI-H522 lung GI50 for Cc1cc(Cl)ccc1Nc1nc(C(F)(F)F)ccc1C(=O)N1CCN(c2cccc(Cl)c2)CC1 = > 100 µM

Fill in: NCI-H522 lung GI50 for CC(=O)N(Cc1ccccc1)c1ccccc1I(=O)=O = 22.4 µM

---

Test system: SNB-78 CNS
EXPERIMENT: NCI tumour cell line growth inhibition, 48 h
Each entry below carries its recorded TGI.

MOLECULE	REPORTED_RESULT
CCCCCCCCCCCCCc1nn[nH]n1	43.6 µM

Value of measured TGI for the entry S=c1nc(-c2ccnc(-c3nc(=S)[nH][nH]3)c2)[nH][nH]1 : > 100 µM

Value of measured TGI for the entry Cc1csc(NC(=NCCN2CCOCC2)Nc2nc(C)cs2)n1 : > 100 µM

Value of measured TGI for the entry COc1ccc(OC)c2c3c(ccc12)C(c1ccccc1)OC3=O (stereo unspecified) : 64.9 µM

Value of measured TGI for the entry COc1ccc2nc3ccccc3c(NCCCCN(C)CCCl)c2c1 : 0.674 µM

Value of measured TGI for the entry O=C(CC1Sc2ccccc2NC1=O)Nc1ccc(Cl)cc1 (stereo unspecified) : > 100 µM

---

System: HCC-2998 colon
EXPERIMENT: NCI tumour cell line growth inhibition, 48 h
Each entry below carries its recorded TGI.

Study these solved cases before continuing.
MOLECULE	TGI
N#Cc1nc(C#N)n(C(=O)c2ccccc2)c1NC(=O)c1ccccc1	> 100 µM
CC1(C2CCC3(C)OC3C2)CO1 (stereo not given)	> 100 µM
CCCCCCCCCCCCCc1nn[nH]n1	33.7 µM

Here's the next entry for you.
Fill in: HCC-2998 colon TGI for C(/Cc1ccc2c(c1)OCO2)=N\NC1=NCCCN1 = > 100 µM

---

Tested on: UO-31 renal
Hi! Could you answer with just one of these? true (1) for active, false (0) for inactive

COMPOUND	TARGET_UNDER_TEST	ASSIGNED_CATEGORY
O=C(NCCCCCCCNC(=O)OCc1ccc2c(Cl)cc(Cl)c(O)c2n1)OCc1ccc2c(Cl)cc(Cl)c(O)c2n1	UO-31 renal	true (1)

# ---- query compound ----
Q: Called result for N[C@@H]1CCCC[C@@H]1N.O=P([O-])([O-])CN(CP(=O)([O-])[O-])CP(=O)([O-])[O-].[Pt+2]
A: false (0)

---

Tested on: SN12C renal
EXPERIMENT: NCI tumour cell line growth inhibition, 48 h
MEASURED_QUANTITY: TGI

MOLECULE	REPORTED_RESULT
Cc1ccc(/C(O)=C/c2nc3ccc([N+](=O)[O-])cc3nc2/C=C(\O)c2ccc(C)cc2)cc1	> 100 µM

Value of measured TGI for the entry CSC1=NCC2(S1)c1ccccc1N(C(=O)OC(C)(C)C)C2N1CCCCC1 (stereo not given) : > 100 µM

Value of measured TGI for the entry CC(=O)N(Cc1ccccc1)c1ccccc1I(=O)=O : > 100 µM

Value of measured TGI for the entry COc1ccc(CCc2cc(OC)c(OC)c(OC)c2)cc1 : > 91.2 µM

Value of measured TGI for the entry O=C1C=CC2(C=C1)C[C@H](NC(=O)C(F)(F)F)C(=O)O2 : > 100 µM

Value of measured TGI for the entry COc1ccccc1NC(=O)C(CC(C(=O)Nc1ccccc1OC)/C(C)=N/Nc1ccc([N+](=O)[O-])cc1[N+](=O)[O-])/C(C)=N/Nc1ccc([N+](=O)[O-])cc1[N+](=O)[O-] (stereo not given) : > 100 µM

Value of measured TGI for the entry COC(=O)/C(=N\NC(N)=S)C(C#N)c1ccccc1 (stereo not given) : > 100 µM

This collection of values is drawn from PubChem BioAssay (NCI).
